system.under.test: β2AR (Homo sapiens, UniProt P07550)
Sequence (P07550 whole entry): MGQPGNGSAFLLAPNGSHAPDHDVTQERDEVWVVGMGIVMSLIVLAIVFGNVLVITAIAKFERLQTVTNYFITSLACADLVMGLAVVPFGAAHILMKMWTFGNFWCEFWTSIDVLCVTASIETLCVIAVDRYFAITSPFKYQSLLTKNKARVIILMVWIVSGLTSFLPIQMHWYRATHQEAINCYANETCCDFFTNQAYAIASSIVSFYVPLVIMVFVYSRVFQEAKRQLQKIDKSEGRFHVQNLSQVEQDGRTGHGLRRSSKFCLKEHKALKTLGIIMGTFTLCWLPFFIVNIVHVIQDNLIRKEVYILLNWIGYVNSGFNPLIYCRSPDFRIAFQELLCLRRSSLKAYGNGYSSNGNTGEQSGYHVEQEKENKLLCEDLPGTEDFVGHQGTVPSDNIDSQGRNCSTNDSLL
test.description: GLOSENSOR cAMP production assay (bias = GloSensor IC50:PathHunter IC50)
Type: cell-based
condition.description: Table 2; GloSensor IC50:PathHunter IC50 ratio
measurement.type: Arrestin fold bias

1) Fc1ccc(Nc2nc(NC3CCCCC3)c3cc(Cl)ccc3n2)cc1F [m,p-difluorophenyl / 6-chloro] ... >400
2) Clc1cccc(CNc2nc(NC3CCCCC3)c3ccccc3n2)c1 [m-chlorobenzyl / N/A] ... No
3) c1ccc2c(NC3CCCCC3)nc(NC3CCCCC3)nc2c1 [cyclohexyl / N/A] ... >10
4) FC(F)(F)c1cccc(Nc2nc(NC3CCCCC3)c3ccccc3n2)c1 [m-trifluoromethylphenyl / N/A] ... ~3
5) Cc1ccc(CNc2nc(NC3CCCCC3)c3ccccc3n2)cc1 [p-methylbenzyl / N/A] ... ~4
6) Cc1ccc2nc(Nc3ccc(F)c(F)c3)nc(NC3CCCCC3)c2c1 [m,p-difluorophenyl / 6-methyl] ... >45
7) c1ccc(Nc2nc(NC3CCCCC3)c3ccccc3n2)cc1 [phenyl / N/A] ... >100
